Where these numbers come from: PubChem BioAssay (NCI)

# Test system: U251 CNS
# measurement description: NCI-60 one-dose screen, 48 h (100 = growth as untreated, 0 = no growth, -100 = all killed)
# measurement context: 10 µM unless noted
Compounds without any hit were thinned out: in the full panel of roughly 83,000, 20% have a hit.
endpoint: growth (%)
Answer with a number only, understood to be in %.

The following compounds have reported results that may help.
[[record]]
compound = "COc1ccc(-c2nc3cc(Cl)c(Cl)cc3n2CC(=O)N=Nc2c(O)[nH]c3ccc(OC)cc23)cc1"
u = "%"
test_result = 77.8

[[record]]
compound = "CS(=O)(=O)c1ncc(-c2ccccc2)cn1"
u = "%"
test_result = 99.3

[[record]]
compound = "O=C1CCC(N2C(=O)c3ccc(NS(=O)(=O)c4ccccc4OC(F)(F)F)cc3C2=O)C(=O)N1 (configuration not stated)"
u = "%"
test_result = 75.8

[[record]]
compound = "COc1ccccc1N1CCN(C2=CC(=O)C(C)=C(C)C2=O)CC1"
u = "%"
test_result = 98.1

[[record]]
compound = "O=C(CSc1nc2ccccc2c(=O)n1-c1ccccc1)Nc1ccc(-c2nc3ccc([N+](=O)[O-])cc3[nH]2)cc1"
u = "%"
test_result = 87.6


If you can, please state the reported growth value of COc1ccc2c(c1)c(CC(=O)[Se]CC#N)c(C)n2C(=O)c1ccc(Cl)cc1 . 19.7

Which growth value is on record for C=CCn1c(-c2nc3ccc(C(=C(C#N)C#N)c4ccccc4)cc3[nH]2)cc2cc(Br)ccc21 ? 51.9

Give the measured growth of Oc1cccc2ccc(-c3nnc(SCc4ccc(O)c5ncccc45)n3-c3ccccc3)nc12 . 8.21

----------
# Tested on: HCC-2998 colon
# measurement description: NCI-60 one-dose screen, 48 h (100 = growth as untreated, 0 = no growth, -100 = all killed)
# measurement context: 10 µM unless noted
The panel holds about 83,000 compounds, 20% with a hit somewhere; the sample as a whole holds those more often.
endpoint: growth (%)
Kindly provide the numeric value in % only, without the unit symbol.

# annotated cases, reported growth shown
[[record]]
compound = "CC(C)(C)c1ccc(-c2nnc(-c3nc4ccccc4nc3Cl)o2)cc1"
test_result = 98.5

[[record]]
compound = "COc1c(N2CC3CCCNC3C2)c(F)cc2c(=O)c(C(=O)N/N=C/c3ccc(Br)cc3)cn(C3CC3)c12 (centres undefined)"
test_result = 92.2

[[record]]
compound = "O=C(CSc1nnc(-c2ccc(Cl)cc2)n1-c1ccccc1)Nc1ccc(Br)cc1"
test_result = 77.9


I have this compound here, O=C(CNc1nc(-c2cccc([N+](=O)[O-])c2)cs1)Nc1cccc([N+](=O)[O-])c1 , and I need its recorded growth. -55.9

Which growth reading was recorded for the compound CCO/C=N/C1=C(C#N)C(c2ccc(OC)cc2)c2sc3c(CC)cccc3c2O1 (centres undefined) ? 44.3

Query (compound): Nc1ccccc1NC(=O)c1ccc(NC(=O)C/C=C/c2cccnc2)cn1 ; field requested: growth 9.51

What does the data say about its growth? Entry: COc1ccc([C@H]2[C@H](O)C(=O)N2c2cc(OC)c(OC)c(OC)c2)cc1F 10.9

Which growth value belongs to CCc1cccc2c3c(sc12)C(c1ccc(Cl)cc1)C(C#N)=C(/N=C/c1ccc(Cl)cc1)O3 (centres undefined) ? 7.72

Please report the recorded growth for CCOc1ccc(NC2=C(Cl)C(=O)c3nc(C)ccc3C2=O)cc1 . -55.7

Which growth value is on record for COc1ccccc1-n1cc(C#N)c(N)c1C(=O)c1ccc(C)cc1 ? 80.9

Tell me the measured growth of Cc1cc(C)cc(C(=O)Nc2cccc(C#Cc3cccc4[nH]nc(N)c34)c2)c1 , please. 57.7

State the recorded growth for this entry: Cc1nc(-c2ccccc2O)ccc1C(=O)N=Nc1c(O)[nH]c2ccc(Br)cc12 123

Give its growth value. Item: Cc1cc(S(=O)(=O)N(C)C)cc(NCC(=O)NC(=O)NCC(C)C)c1C 120

Bench note: what growth did O=C(CN1CCN(c2cc(=O)n(-c3ccccc3)c3ccccc23)CC1)Nc1nc(-c2ccc(Cl)cc2)cs1 show? 92.4

Item C#C[C@]1(O)CC[C@H]2[C@@H]3CC=C4c5sc(-c6cccc(O)c6)nc5CC[C@]4(C)[C@H]3CC[C@@]21C has what recorded growth? -24.8

Item N#C/C(=C\c1ccc(-c2ccc(Cl)cc2Cl)o1)c1ccc(F)cc1 has what recorded growth? 105
